- TARGET ENTITY: Human Mek1 Kinase (Homo sapiens, UniProt Q02750, S218E/S222E)
- Sequence (Q02750 whole entry S218E/S222E): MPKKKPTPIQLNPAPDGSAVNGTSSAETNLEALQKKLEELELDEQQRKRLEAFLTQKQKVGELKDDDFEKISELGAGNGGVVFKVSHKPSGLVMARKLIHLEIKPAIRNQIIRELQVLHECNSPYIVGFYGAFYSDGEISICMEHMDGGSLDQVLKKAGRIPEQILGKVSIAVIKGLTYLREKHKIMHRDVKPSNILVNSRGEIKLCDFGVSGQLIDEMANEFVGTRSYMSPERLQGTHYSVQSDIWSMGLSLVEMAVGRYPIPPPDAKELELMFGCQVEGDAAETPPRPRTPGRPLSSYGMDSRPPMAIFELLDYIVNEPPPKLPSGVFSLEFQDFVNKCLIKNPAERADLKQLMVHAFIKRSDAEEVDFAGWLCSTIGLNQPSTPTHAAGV
- MEASUREMENT DESCRIPTION: MEK-1 Enzyme Assay (LANCE-HTRF)
- STATED CONDITIONS: constitutively active MEK-1EE, ERK-2K52A substrate, 9 μM ATP, 1.5 hrs room temperature
MEASUREMENT TYPE: IC50

Solved entries (count: 10):
COMPOUND | RESULT
NC(=O)c1ncc(F)cc1Nc1ccc(I)cc1F [Example 3] | < 1 µM
NC(=O)c1cc(Cl)nnc1Nc1ccc(I)cc1F [Example 9] | < 1 µM
CC1(C)OC[C@H](CONC(=O)c2cc(Cl)nnc2Nc2ccc(I)cc2F)O1 [Example 7] | > 10 µM
CC1(C)OC[C@H](CONC(=O)c2ccc(F)nc2Nc2ccc(I)cc2F)O1 [Example 12] | 1 to 10 µM
O=C(NCCN1CCOCC1)c1cc(Cl)nnc1Nc1ccc(I)cc1F [Example 10] | 1 to 10 µM
O=C(NOC[C@H](O)CO)c1ccc(F)nc1Nc1ccc(I)cc1F [Example 13] | 1 to 10 µM
O=C(NOC[C@H](O)CO)c1cc(Cl)nnc1Nc1ccc(I)cc1F [Example 8] | > 10 µM
O=C(O)c1ccc(F)nc1Nc1ccc(I)cc1F [Example 11] | < 1 µM
O=C(O)c1ncc(F)cc1Nc1ccc(I)cc1F [Example 2] | 1 to 10 µM
O=C(O)c1cc(Cl)nnc1Nc1ccc(I)cc1F [Example 4] | < 1 µM

*Q* Give IC50 for the following compound: N#Cc1ncc(F)cc1Nc1ccc(I)cc1F [Example 1]
*A* > 10 µM

*Q* Give IC50 for the following compound: COc1cc(C(=O)O)c(Nc2ccc(I)cc2F)nn1 [Example 6]
*A* > 10 µM

*Q* Give IC50 for the following compound: O=C(O)c1cc(N2CCOCC2)nnc1Nc1ccc(I)cc1F [Example 5]
*A* 1 to 10 µM
